Provide the recorded pIC50 for the entries that follow.
Biological target: T1, neuromedin-B preferring receptor (NMB-R) of C6 rodent glioblastoma cells (rodent, UniProt P24053 1-390, limits assumed)
T1 construct: whole, on cells; also called C6/NMB-R
T1 sequence (looked up): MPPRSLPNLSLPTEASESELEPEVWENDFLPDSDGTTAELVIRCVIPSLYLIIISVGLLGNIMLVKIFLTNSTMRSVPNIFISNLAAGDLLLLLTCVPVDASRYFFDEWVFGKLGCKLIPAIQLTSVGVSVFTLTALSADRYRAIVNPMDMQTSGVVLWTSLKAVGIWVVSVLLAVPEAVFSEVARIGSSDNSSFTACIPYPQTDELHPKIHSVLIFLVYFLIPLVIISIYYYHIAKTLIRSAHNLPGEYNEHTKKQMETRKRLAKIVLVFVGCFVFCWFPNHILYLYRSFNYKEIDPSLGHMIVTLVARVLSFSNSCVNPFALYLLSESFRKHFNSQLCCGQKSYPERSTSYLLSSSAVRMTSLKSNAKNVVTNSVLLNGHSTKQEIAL
Experiment: 125I-NMB competition, C6 cells
[ ]: non-standard residue; d: D form. The star is where a group is joined. DOTA = O=C(O)CN1CCN(CC(=O)O)CCN(CC(=O)*)CCN(CC(=O)O)CC1; 4Abz = Nc1ccc(C(=O)O)cc1; Me2Gly = CN(C)CC(=O)*; Acm = CC(=O)NC*
One number for each entry, as −log10 of the molar value.

Example cases with answers are listed next.
[[record]]
binder = "{DOTA}-G[4Abz]LWATGHFM-NH2 (also called L227) [DO3A-monoamide-G-Abz4-LWATGHFM-NH2]"
recorded_number = 9.10

[[record]]
binder = "[Me2Gly]SC(Acm)GKEQWAVGHLM-NH2 (SMILES CSCC[C@H](NC(=O)[C@H](CC(C)C)NC(=O)[C@H](Cc1c[nH]cn1)NC(=O)CNC(=O)[C@@H](NC(=O)[C@H](C)NC(=O)[C@H](Cc1c[nH]c2ccccc12)NC(=O)[C@H](CCC(N)=O)NC(=O)[C@H](CCC(=O)O)NC(=O)[C@H](CCCCN)NC(=O)CNC(=O)[C@H](CSCNC(C)=O)NC(=O)[C@H](CO)NC(=O)CN(C)C)C(C)C)C(N)=O) [N,N-dimethylglycine-Ser-Cys(Acm)-Gly-KE-QWAVGHLM-NH2]"
recorded_number = 7.22


Dear colleague, I am looking for the recorded pIC50 of the following binder: [Me2Gly]SC(Acm)GSRQWAVGHLM-NH2 (SMILES CSCC[C@H](NC(=O)[C@H](CC(C)C)NC(=O)[C@H](Cc1c[nH]cn1)NC(=O)CNC(=O)[C@@H](NC(=O)[C@H](C)NC(=O)[C@H](Cc1c[nH]c2ccccc12)NC(=O)[C@H](CCC(N)=O)NC(=O)[C@H](CCCNC(=N)N)NC(=O)[C@H](CO)NC(=O)CNC(=O)[C@H](CSCNC(C)=O)NC(=O)[C@H](CO)NC(=O)CN(C)C)C(C)C)C(N)=O) [N,N-dimethylglycine-Ser-Cys(Acm)-Gly-SR-QWAVGHLM-NH2] 8.70
